Values compiled from the Deep4Chem optical property database.

The following compounds are listed with their measured absorption maximum values.
# ASSAY_SUMMARY: solvent given as SMILES
# ASSAY_SETUP: in CO

Entry CC[n+]1ccc2ccccc2c1/C=C/c1c([O-])ccc2ccc(=O)oc12 , absorption maximum reported as 535.64 nm

So for c1ccc2cc(-n3c4ccccc4c4ccccc43)ccc2c1 , the logged absorption maximum turned out to be 319 nm

The value of absorption maximum measured for the compound CC(=O)c1ccc2ccc3c(NCCC(=O)NCCCCCCc4nc5c(=O)[nH]c(N)nc5n4[C@H]4C[C@H](O)[C@@H](CO)O4)ccc4ccc1c2c43 turned out to be 447 nm

Input COC(=O)C(NC(=O)OC(C)(C)C)c1ccc2oc(-c3ccc(O)cc3O)nc2c1 (stereo not drawn) . Output absorption maximum: 321 nm

absorption maximum recorded for this compound, O=C1CCCC2=C1CC1=C(CCCC1=O)N2NC(=O)c1ccccc1 , is 374 nm

Recorded absorption maximum (compound Cc1cc(C)c(B(c2cc(-c3ccc(N(C)C)cc3)sc2-c2sc(-c3ccc(N(C)C)cc3)cc2P(=O)(c2ccccc2)c2ccccc2)c2c(C)cc(C)cc2C)c(C)c1 ): 435 nm

// absorption maximum lookup, compound = c1ccc(-c2cc(-c3ccc4ccc5cccc6ccc3c4c56)ccn2)nc1 , result: 342.99 nm

response.value for COCCOCCOCCNc1cc2c3c(c(NCCOCCOCCOC)cc4c3c1C(=O)N(CCOCCOCCOC)C4=O)C(=O)N(CCOCCOCCOC)C2=O (field: absorption maximum) = 605 nm

Measured absorption maximum of COc1c2ccccc2c(OC)c2c1c1cc(F)ccc1n2C : 416 nm

Recorded result, O=C1c2ccccc2-c2ccc(N3CCN(c4ccccc4)CC3)c3cccc1c23 , absorption maximum: 445 nm

response.value for CC[n+]1c(C=C2C(=O)C(C=C3N(C)c4ccc(Cl)cc4C3(C)C)=C2[O-])sc2ccccc21 (field: absorption maximum) = 634 nm

What the record says about CCCCCCN(CCCCCC)c1ccc(C#Cc2ccc(C(F)(F)F)cc2)cc1 : absorption maximum is 356 nm

response.value for CC1=CC(/C=C/c2ccc(OCCCN=[N+]=[N-])cc2)=[N+]2C1=C(c1ccccc1)c1c(C)cc(C)n1[B-]2(F)F (field: absorption maximum) = 564 nm

response.value for COC(=O)c1c2ccccc2nc2ccccc12 (field: absorption maximum) = 360 nm

The reported absorption maximum of the compound CCN(CC)c1ccc2nc3c4ccccc4c(=O)cc-3oc2c1 was 553 nm

absorption maximum measured on COc1ccccc1-c1nc(-c2ccccc2)c2ccccn12 = 298 nm

According to the records, this compound COc1ccc(/C=C/C=C/C2=NC3C(=O)NC(N)=NC3N2[C@H]2C[C@H](O)[C@@H](CO)O2)cc1 (stereo partly drawn) displays absorption maximum of 342 nm

Notebook: CCCCNC(=O)c1nc2c(N(C)C)nc(N(C)C)nc2n1Cc1ccccc1 , absorption maximum read as 335 nm

Record CN(C)c1ccc(/C=C/C=C/C2=NC3C(=O)NC(N)=NC3N2[C@H]2C[C@H](O)[C@@H](CO)O2)cc1 (stereo partly drawn) . Reported absorption maximum: 343 nm

Reported absorption maximum of O=[N+]([O-])c1ccc(C#Cc2ccc([N+](=O)[O-])cc2)cc1 : 329 nm

The recorded absorption maximum for entry c1ccc(-c2cc(-c3ccc(-c4nc(-c5ccccn5)c(-c5ccccn5)[nH]4)cc3)cc(-c3ccccn3)n2)nc1 equals 321 nm

* * *

# ASSAY_SUMMARY: solvent given as SMILES
# ASSAY_SETUP: in CN(C)C=O
READOUT_TYPE: absorption maximum (nm)
Give the quantity in nm, number only.

>  <SMILES_NOTATION>
CCCCN1C(=O)C(=C/C=C/C=C/C=C2N(CCCC)c3ccccc3N2CCCC)C(=O)N(CCCC)C1=S

>  <absorption maximum (nm)>
549

$$$$

Value of measured absorption maximum for the entry CCCCCCC(CCCCCC)N1C(=O)c2cccc3c(-c4ccc(OC)c5cccc(C)c45)ccc(c23)C1=O : 328.8

Looking up COc1ccc(C(=O)/C=C2\C(=O)Nc3ccccc32)c(OC)c1 , I found its absorption maximum recorded as 338

Entry CCCCCCCCCCCCN1C(=O)c2ccc3c4ccc5c6c(ccc(c7ccc(c2c37)C1=O)c64)C(=O)N(CCCCCCCCCCCC)C5=O ; absorption maximum = 523

* * *

# ASSAY_SUMMARY: solvent given as SMILES
# ASSAY_SETUP: in CN(C)C=O
Below, each entry is listed alongside its reported absorption maximum.
The figure you give is taken to be in nm; do not add the unit.

>  <SMILES_NOTATION>
CC(C)(C)NS(=O)(=O)c1ccc2c(c1)C(=O)/C(=C1\Sc3ccc(S(=O)(=O)NC(C)(C)C)cc3C1=O)S2

>  <absorption maximum (nm)>
543

$$$$
>  <SMILES_NOTATION>
CCCCCCCCCCCCCCCCCCN1C(=O)c2ccc3c4ccc5c6c(ccc(c7ccc(c2c37)C1=O)c64)C(=O)NC5=O

>  <absorption maximum (nm)>
523

$$$$
>  <SMILES_NOTATION>
Nc1ccc2c(C(F)(F)F)cc(=O)oc2c1

>  <absorption maximum (nm)>
378

$$$$
>  <SMILES_NOTATION>
CCCCCCC(CCCCCC)N1C(=O)c2cccc3c(-c4ccc(OC)c5ccccc45)ccc(c23)C1=O

>  <absorption maximum (nm)>
323.8

$$$$
>  <SMILES_NOTATION>
O=Cc1cc(O)ccc1O

>  <absorption maximum (nm)>
365

$$$$

# molecule Cc1ccc2[nH]c(-c3ccc(-c4ccc(-c5ccc(-c6nc7cc(C)ccc7[nH]6)cc5)c(F)c4)cc3)nc2c1 ; its absorption maximum = 344

Entry c1ccc(-c2oc(-c3ccccc3)c3ccccc23)cc1 , absorption maximum reported as 415

The reported absorption maximum of the molecule COCCOc1ccc(OCCOC)c(C=O)c1 was 350

Memo: CC(C)(C)c1ccc2c(c1)c1cc(C(C)(C)C)ccc1n2-c1cccc(-c2nc(-c3cccc(-n4c5ccc(C(C)(C)C)cc5c5cc(C(C)(C)C)ccc54)c3)nc(-c3cccc(P(=O)(c4ccccc4)c4ccccc4)c3)n2)c1 , reported absorption maximum: 344.36

* * *

# ASSAY_SUMMARY: solvent given as SMILES
# ASSAY_SETUP: in ClCCl
Bucketed by reported absorption maximum, buckets being low-valued (below 400 nm), mid-valued (400 nm to below 500 nm), high-valued (500 nm or more)

Past entries and their recorded results:
>  <MOLECULE>
COC1(OC)C2(Cl)c3nc4cc(-c5cccs5)ccc4nc3C1(Cl)C1C[C@H]3[C@@H](CC12)C1(Cl)c2nc4cc(-c5cccs5)ccc4nc2C3(Cl)C1(OC)OC (stereo partly drawn)

>  <CLASSIFICATION>
low-valued

$$$$
>  <MOLECULE>
N#Cc1cnc(-c2c3ccccc3cc3ccccc23)nc1

>  <CLASSIFICATION>
low-valued

$$$$
>  <MOLECULE>
CCCCN(CCCC)c1ccc2c(c1)C#CC#Cc1cc(N(CCCC)CCCC)ccc1C#Cc1cc(c3cc1C#Cc1ccc(C(F)(F)F)cc1C#CC#Cc1cc(C(F)(F)F)ccc1C#C3)C#C2

>  <CLASSIFICATION>
mid-valued

$$$$
>  <MOLECULE>
CCn1c2c(-c3cccs3)cc(C(C)(C)C)cc2c2cc(C(C)(C)C)cc(-c3cccs3)c21

>  <CLASSIFICATION>
low-valued

$$$$
>  <MOLECULE>
Cc1cc(C)c(C2=C3C=C(/C=C/C(=O)OCc4ccccc4)C=[N+]3[B-](F)(F)n3cccc32)c(C)c1

>  <CLASSIFICATION>
high-valued

$$$$
>  <MOLECULE>
CCn1c2ccccc2c2cc(C#Cc3cc(C#Cc4ccc5c(c4)c4ccccc4n5CC)nc(S(C)(=O)=O)n3)ccc21

>  <CLASSIFICATION>
mid-valued

$$$$

Task item: Which class does O=C1OC(=O)c2ccc(N(c3ccccc3)c3ccc4ccc5cccc6ccc3c4c56)c3cccc1c23 fall in?
Reply: mid-valued

Task item: Returns: class label. Input: CCN1c2ccc(-c3cc(C(F)(F)F)[nH]n3)cc2Sc2cc(-c3cc(C(F)(F)F)[nH]n3)ccc21
Reply: low-valued

Task item: Which class holds O=C1c2cccc3cc4ccccc4c(c23)C(=O)N1Cc1ccccn1 ?
Reply: mid-valued

* * *

# ASSAY_SUMMARY: solvent given as SMILES
# ASSAY_SETUP: in C1CCCCC1
Exam item: assign yes to entries whose absorption maximum is below 400 nm and no to entries at or above 400 nm. Note that a value of exactly 400 nm receives no.

>  <COMPOUND>
Oc1ccccc1

>  <CLASSIFICATION>
yes

$$$$
>  <COMPOUND>
COc1ccc(C2=C(c3ccc(OC)cc3)C(C)(C)c3c2ccc2ccccc32)cc1

>  <CLASSIFICATION>
yes

$$$$

Task item: Below 400 nm on absorption maximum? Entry CCc1c(C)c2n(c1C)[B-](F)(F)[N+]1=C(C=C3c4ccccc4-c4ccccc43)C=CC1=C2C
Reply: no

Task item: Dear colleague, could you confirm whether absorption maximum of C[Si](C)(c1cccc2cc3ccccc3cc12)[Si](C)(C)c1cccc2cc3ccccc3cc12 falls below 400 nm? Thanks.
Reply: yes

Task item: Hello, I'm reviewing records and need to know if absorption maximum of CN(C)c1ccc(C(=O)Nc2ccc(F)cc2)cc1 is below 400 nm. Could you check?
Reply: yes

Task item: Please let me know if N#Cc1ccc(-c2nc(-c3ccccc3)c3ccccn23)cc1 shows absorption maximum below 400 nm.
Reply: yes

Task item: Item CCC1=C(C)C2=C(C)c3c(I)c(I)c(I)n3[B-](F)(F)[N+]2=C1C : absorption maximum beneath 400 nm, strictly?
Reply: no
